These entries and their values trace back to patent US20260285888A1.

# Assay Explanation: Study for confirmation of conversion to brexpiprazole in a buffer (stability of the evaluation compounds)
# Format: physicochemical
# Assay Context: in buffer; decrease in 60-minute vs 0-minute reaction sample; average of duplicate
Parameter: Concentration of evaluation compound decreased. Scope: all listed entries.

Molecular String: O=c1ccc2ccc(OCCCC[N+]3(COP(=O)([O-])OC/C=C/CO)CCN(c4cccc5sccc45)CC3)cc2[nH]1
Result: 30 nM
--
Molecular String: O=c1ccc2ccc(OCCCC[N+]3(COP(=O)([O-])O)CCN(c4cccc5sccc45)CC3)cc2[nH]1
Result: 0 nM
--
Molecular String: CCCCCCCCOP(=O)([O-])OC[N+]1(CCCCOc2ccc3ccc(=O)[nH]c3c2)CCN(c2cccc3sccc23)CC1
Result: 60 nM
--
Molecular String: CCOCCC(=O)OCOP(=O)([O-])OC[N+]1(CCCCOc2ccc3ccc(=O)[nH]c3c2)CCN(c2cccc3sccc23)CC1
Result: -10 nM
--
Molecular String: CC(C)NC(=O)CCCC(=O)OCOP(=O)([O-])OC[N+]1(CCCCOc2ccc3ccc(=O)[nH]c3c2)CCN(c2cccc3sccc23)CC1
Result: 130 nM
--
Molecular String: COC(=O)[C@H](COP(=O)([O-])OC[N+]1(CCCCOc2ccc3ccc(=O)[nH]c3c2)CCN(c2cccc3sccc23)CC1)NC(=O)OC(C)(C)C
Result: 70 nM
--
Molecular String: CC(C)COC(=O)[C@@H](C)OP(=O)([O-])OC[N+]1(CCCCOc2ccc3ccc(=O)[nH]c3c2)CCN(c2cccc3sccc23)CC1
Result: 70 nM
--
Molecular String: CCCOP(=O)([O-])OC[N+]1(CCCCOc2ccc3ccc(=O)[nH]c3c2)CCN(c2cccc3sccc23)CC1
Result: -10 nM

Now look at this entry.
Query: Give the measured Concentration of evaluation compound decreased of "CC(C)(O)CCOP(=O)([O-])OC[N+]1(CCCCOc2ccc3ccc(=O)[nH]c3c2)CCN(c2cccc3sccc23)CC1" .
Reply: 70 nM

###

# Assay Explanation: in vitro
# Format: cell-based, human
# Assay Context: human, differentiated hl-60 cells, 300 μmol/L, about 24 hours, PMA-differentiated HL-60 cells, LDH; no-treatment 0%, cell lysis buffer 100%; read-out: cytotoxicity (%) Evaluation compound results
Property Measured: cytotoxicity at 24 h, 300 µM (%)
Give the value in % but do not write % after it.

Molecular String: CC(C)(C)OC(=O)NC(C)(C)C(=O)OCOP(=O)([O-])OC[N+]1(CCCCOc2ccc3ccc(=O)[nH]c3c2)CCN(c2cccc3sccc23)CC1
Uom: %
cytotoxicity at 24 h, 300 µM: 2

Query: Give the measured cytotoxicity at 24 h, 300 µM of "CC(C)C(=O)OP(=O)([O-])OC[N+]1(CCCCOc2ccc3ccc(=O)[nH]c3c2)CCN(c2cccc3sccc23)CC1" .
Reply: -3

Query: Likewise for "CCOCC(=O)OCOP(=O)([O-])OC[N+]1(CCCCOc2ccc3ccc(=O)[nH]c3c2)CCN(c2cccc3sccc23)CC1" ?
Reply: -8
